Origin of values: patent US10738007B2

# Assay target: ROCK1 (Homo sapiens (Human))
# Sequence (Q13464 whole entry, species assumed): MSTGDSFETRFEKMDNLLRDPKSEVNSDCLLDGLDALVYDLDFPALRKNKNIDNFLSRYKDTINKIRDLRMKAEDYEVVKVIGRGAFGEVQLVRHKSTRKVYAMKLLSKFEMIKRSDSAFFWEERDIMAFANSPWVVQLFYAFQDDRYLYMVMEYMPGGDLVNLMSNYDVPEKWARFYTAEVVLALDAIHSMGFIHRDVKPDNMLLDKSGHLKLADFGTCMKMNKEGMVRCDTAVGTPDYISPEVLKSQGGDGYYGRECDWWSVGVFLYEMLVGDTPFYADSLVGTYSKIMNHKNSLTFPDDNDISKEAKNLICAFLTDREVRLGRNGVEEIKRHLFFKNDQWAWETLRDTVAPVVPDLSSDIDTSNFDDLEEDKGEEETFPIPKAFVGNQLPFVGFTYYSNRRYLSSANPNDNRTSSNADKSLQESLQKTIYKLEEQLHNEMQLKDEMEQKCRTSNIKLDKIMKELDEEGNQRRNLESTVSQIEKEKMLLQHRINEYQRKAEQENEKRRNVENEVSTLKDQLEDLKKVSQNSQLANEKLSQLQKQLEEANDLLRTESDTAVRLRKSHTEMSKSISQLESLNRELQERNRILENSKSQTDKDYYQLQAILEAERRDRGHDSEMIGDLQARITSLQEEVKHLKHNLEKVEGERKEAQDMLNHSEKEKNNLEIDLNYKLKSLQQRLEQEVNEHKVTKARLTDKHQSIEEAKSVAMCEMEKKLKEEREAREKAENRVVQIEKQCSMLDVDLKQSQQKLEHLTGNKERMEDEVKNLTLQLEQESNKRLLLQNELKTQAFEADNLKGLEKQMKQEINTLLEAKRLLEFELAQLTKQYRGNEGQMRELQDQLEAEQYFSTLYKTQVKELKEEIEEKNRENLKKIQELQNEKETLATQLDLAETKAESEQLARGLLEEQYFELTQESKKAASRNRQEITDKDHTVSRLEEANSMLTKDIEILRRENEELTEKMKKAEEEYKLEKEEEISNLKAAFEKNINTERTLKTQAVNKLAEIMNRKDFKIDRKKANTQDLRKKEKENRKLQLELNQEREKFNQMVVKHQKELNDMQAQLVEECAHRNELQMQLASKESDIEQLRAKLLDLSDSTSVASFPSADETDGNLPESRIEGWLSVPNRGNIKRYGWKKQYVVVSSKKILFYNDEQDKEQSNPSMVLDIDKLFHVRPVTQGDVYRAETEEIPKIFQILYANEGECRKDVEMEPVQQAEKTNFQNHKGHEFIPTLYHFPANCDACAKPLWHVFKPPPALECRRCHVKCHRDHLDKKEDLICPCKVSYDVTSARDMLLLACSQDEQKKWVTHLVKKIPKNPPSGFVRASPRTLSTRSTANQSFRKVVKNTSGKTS
Measure name: log10 IC50 (log10 of the value in nM)
Heads up: the numbers are on a log10 scale; they represent IC50 in nM.

Entry "C[C@@H](NC(=O)c1ccc(-c2ccncc2)cc1)c1cccc(C(=O)NC2CC2)c1" , system ROCK1 (Homo sapiens (Human)): what log10 IC50 was measured?
0.38

Can you handle "COCCOc1cc(-c2cn[nH]c2)ccc1C(=O)N[C@H](C)c1cccc(C(=O)NC2CCCC2)c1" next?
0.59

Next entry: "CN(C)Cc1ccc(CNC(=O)c2cccc([C@@H](CO)NC(=O)c3ccc(-c4ccncc4)cc3)c2)cc1"
0.15

New cases:
// lookup log10 IC50 | system=ROCK1 (Homo sapiens (Human)) | key= "CN1CCn2nc(NC(=O)c3cccc(CNC(=O)c4ccc(-c5ccncc5)cc4)c3)cc2C1"
1.06

# repeat for "O=C(NCC1CCC(F)(F)CC1)c1cccc([C@@H](CO)NC(=O)c2ccc(-c3ccncc3)cc2)c1"
0.34

Follow-up entry: "CN(C)Cc1cccc(CNC(=O)c2cccc([C@@H](CO)NC(=O)c3ccc(-c4cn[nH]c4)cc3)c2)c1"
0.30

Let us now turn to "O=C(NC1CCCC1)c1cccc([C@@H](CO)NC(=O)c2ccc(-c3ccncc3)cc2)c1"
0.68

Cool, now "CN(C)CCNC(=O)COc1cccc(CNC(=O)c2ccc(-c3ccncc3)cc2)c1"
1.75
